system_tested: RAF proto-oncogene serine/threonine-protein kinase (Homo sapiens)
Sequence (P04049 whole entry): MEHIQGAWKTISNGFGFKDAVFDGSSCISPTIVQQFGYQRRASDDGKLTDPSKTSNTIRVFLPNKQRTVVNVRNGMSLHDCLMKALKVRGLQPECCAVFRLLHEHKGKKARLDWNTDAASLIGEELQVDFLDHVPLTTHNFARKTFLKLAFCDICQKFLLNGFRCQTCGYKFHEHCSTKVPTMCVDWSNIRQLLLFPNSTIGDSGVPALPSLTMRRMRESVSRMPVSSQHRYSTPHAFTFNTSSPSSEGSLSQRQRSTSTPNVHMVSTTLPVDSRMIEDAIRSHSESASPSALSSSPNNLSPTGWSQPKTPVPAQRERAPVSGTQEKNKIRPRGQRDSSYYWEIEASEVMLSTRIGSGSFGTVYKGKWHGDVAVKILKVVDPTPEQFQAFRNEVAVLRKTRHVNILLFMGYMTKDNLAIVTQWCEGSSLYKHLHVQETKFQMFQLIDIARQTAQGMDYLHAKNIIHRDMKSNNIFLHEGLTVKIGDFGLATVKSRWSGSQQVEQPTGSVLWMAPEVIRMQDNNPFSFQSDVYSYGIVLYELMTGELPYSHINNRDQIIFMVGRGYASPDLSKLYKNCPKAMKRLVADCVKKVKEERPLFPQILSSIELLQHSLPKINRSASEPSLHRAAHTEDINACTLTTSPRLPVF
protocol_text: Inhibition of human cRAF using [gamma-33P-ATP] as a substrate by scintillation counting
Binarize IC50 at 0.4 µM; below is TRUE, at or above is FALSE.

>  <compound_structure_string>
CNC(=O)c1nc2ccc(CCNC(=O)Nc3cc(C(F)(F)F)ccc3OC)cc2[nH]1

>  <group_label>
TRUE

$$$$
>  <compound_structure_string>
CNC(=O)c1cc2ccc(CCNC(=O)Nc3cccc(C(F)(F)F)c3)cc2cn1

>  <group_label>
TRUE

$$$$
>  <compound_structure_string>
CC(=O)Nc1nc2ccc(CCNC(=O)Nc3cc(C)c(Cl)cc3OCCN)cc2[nH]1

>  <group_label>
FALSE

$$$$
>  <compound_structure_string>
CNCCOc1cc(Cl)c(C)cc1NC(=O)NCCc1ccc2nc(NC(C)=O)[nH]c2c1

>  <group_label>
FALSE

$$$$
>  <compound_structure_string>
CC(=O)Nc1nc2ccc(CCNC(=O)Nc3ccc(Cl)c(Cl)c3)cc2[nH]1

>  <group_label>
FALSE

$$$$
>  <compound_structure_string>
COC(=O)Nc1nc2ccc(CCNC(=O)Nc3ccc(Cl)c(C(F)(F)F)c3)cc2[nH]1

>  <group_label>
FALSE

$$$$
>  <compound_structure_string>
CNC(=O)c1cc2ccc(CCNC(=O)Nc3cc(Cl)c(C)cc3OC)cc2cn1

>  <group_label>
TRUE

$$$$
>  <compound_structure_string>
COC(=O)Nc1nc2ccc(CCNC(=O)Nc3cc(C(F)(F)F)ccc3OC)cc2[nH]1

>  <group_label>
FALSE

$$$$
>  <compound_structure_string>
CC(=O)Nc1nc2ccc(CCNC(=O)Nc3ccc(Cl)c(C(F)(F)F)c3)cc2[nH]1

>  <group_label>
TRUE

$$$$

* * *

// values below are IC50; system is RAF proto-oncogene serine/threonine-protein kinase (Homo sapiens)

>  <molecule>
CC(=O)Nc1nc2ccc(CCNC(=O)Nc3ccc(C)c(Cl)c3)cc2[nH]1

>  <IC50>
530 nM

$$$$
>  <molecule>
CNC(=O)c1cc2ccc(CCNC(=O)Nc3ccc(F)c(C(F)(F)F)c3)cc2cn1

>  <IC50>
240 nM

$$$$
>  <molecule>
COc1cc(Cl)c(C)cc1NC(=O)NCCc1ccc2nc(NC(C)=O)[nH]c2c1

>  <IC50>
320 nM

$$$$
>  <molecule>
CNC(=O)c1cc2ccc(CCNC(=O)Nc3cc(C(F)(F)F)ccc3OCCN(C)C)cc2cn1

>  <IC50>
450 nM

$$$$
>  <molecule>
COc1cc(C)c(Cl)cc1NC(=O)NCCc1ccc2nc(NC(C)=O)[nH]c2c1

>  <IC50>
190 nM

$$$$
>  <molecule>
COc1ccc(C(F)(F)F)cc1NC(=O)NCCc1ccc2nc(NC(C)=O)[nH]c2c1

>  <IC50>
170 nM

$$$$
>  <molecule>
CNC(=O)c1cc2ccc(CCNC(=O)Nc3ccc(C)c(C(F)(F)F)c3)cc2cn1

>  <IC50>
200 nM

$$$$
>  <molecule>
CC(=O)Nc1nc2ccc(CCNC(=O)Nc3cc(C(F)(F)F)c(Cl)cc3OCCN)cc2[nH]1

>  <IC50>
180 nM

$$$$
>  <molecule>
CC(=O)Nc1nc2ccc(CCNC(=O)Nc3cc(C(F)(F)F)ccc3OCC3CCCN3)cc2[nH]1 (centres undefined)

>  <IC50>
230 nM

$$$$
